experiment-description: fluorescence excitation/emission and quantum yield of benzo[c]xanthene dyes
Assay type: physicochemical
applied-conditions: base form
property-measured: FLUORESCENCE, BASE EMIT (NM)

CN(C)c1ccc2c(c1)Oc1c(ccc3cc(O)ccc13)C21OC(=O)c2ccccc21 (stereo not shown) = 632
O=C(O)c1ccc2c(c1)C1(OC2=O)c2cc(Cl)c(O)cc2Oc2c1ccc1cc(O)ccc21 (stereo not shown) = 630
O=C(O)c1ccc2c(c1)C(=O)OC21c2cc3c4c(c2Oc2c1ccc1cc(O)ccc21)CCCN4CCC3 (stereo not shown) = 630
CCN(CC)c1ccc2c(c1)Oc1c(ccc3cc(O)ccc13)C21OC(=O)c2ccccc21 (stereo not shown) = 632

---

experiment-description: absorption spectra (maxima and extinction coefficients) of benzo[c]xanthene dyes
Type: physicochemical
applied-conditions: acid form, longer-wavelength maximum
property-measured: ABSORPTION, ACID MAXIMA (second) (NM)

CN(C)c1ccc2c(c1)Oc1c(ccc3cc(O)ccc13)C21OC(=O)c2ccccc21 (stereo not shown) = 544
O=C(O)c1ccc2c(c1)C1(OC2=O)c2cc(Cl)c(O)cc2Oc2c1ccc1cc(O)ccc21 (stereo not shown) = 514
CCNc1cc2c(cc1C)C1(OC(=O)c3ccccc31)c1ccc3cc(O)ccc3c1O2 (stereo not shown) = 522
O=C(O)c1ccc2c(c1)C(=O)OC21c2cc3c4c(c2Oc2c1ccc1cc(O)ccc21)CCCN4CCC3 (stereo not shown) = 569
CCN(CC)c1ccc2c(c1)Oc1c(ccc3cc(O)ccc13)C21OC(=O)c2ccc(C(=O)O)cc21 (stereo not shown) = 550
CCN(CC)c1ccc2c(c1)Oc1c(ccc3cc(O)ccc13)C21OC(=O)c2ccccc21 (stereo not shown) = 550
CN(C)c1ccc2c(c1)Oc1c(ccc3cc(O)ccc13)C21OC(=O)c2cc(C(=O)O)ccc21 (stereo not shown) = 548

---

experiment-description: fluorescence excitation/emission and quantum yield of benzo[c]xanthene dyes
Format: physicochemical
applied-conditions: acid form
property-measured: FLUORESCENCE, ACID EXCITE (NM)

CN(C)c1ccc2c(c1)Oc1c(ccc3cc(O)ccc13)C21OC(=O)c2cc(C(=O)O)ccc21 (centres unmarked) [Compound 8] = 556
CN(C)c1ccc2c(c1)Oc1c(ccc3cc(O)ccc13)C21OC(=O)c2ccccc21 (centres unmarked) [Compound 5] = 549
CCN(CC)c1ccc2c(c1)Oc1c(ccc3cc(O)ccc13)C21OC(=O)c2ccc(C(=O)O)cc21 (centres unmarked) [Compound 9] = 558
O=C(O)c1ccc2c(c1)C(=O)OC21c2cc3c4c(c2Oc2c1ccc1cc(O)ccc21)CCCN4CCC3 (centres unmarked) [Compound 11] = 530
O=C1OC2(c3ccc(O)cc3Oc3c2ccc2cc(O)ccc32)c2ccccc21 (centres unmarked) [Compound 1] = 513
CCNc1cc2c(cc1C)C1(OC(=O)c3ccccc31)c1ccc3cc(O)ccc3c1O2 (centres unmarked) [Compound 7] = 525
CCN(CC)c1ccc2c(c1)Oc1c(ccc3cc(O)ccc13)C21OC(=O)c2ccccc21 (centres unmarked) [Compound 6] = 557
O=C(O)c1ccc2c(c1)C1(OC2=O)c2cc(Cl)c(O)cc2Oc2c1ccc1cc(O)ccc21 (centres unmarked) [Compound 3] = 517

---

experiment-description: fluorescence excitation/emission and quantum yield of benzo[c]xanthene dyes
Format: physicochemical
applied-conditions: acid form
property-measured: FLUORESCENCE, ACID EMIT (NM)

CCNc1cc2c(cc1C)C1(OC(=O)c3ccccc31)c1ccc3cc(O)ccc3c1O2 (centres unmarked) [Compound 7] = 552
O=C1OC2(c3ccc(O)cc3Oc3c2ccc2cc(O)ccc32)c2ccccc21 (centres unmarked) [Compound 1] = 539
O=C(O)c1ccc2c(c1)C(=O)OC21c2cc3c4c(c2Oc2c1ccc1cc(O)ccc21)CCCN4CCC3 (centres unmarked) [Compound 11] = 599
CCN(CC)c1ccc2c(c1)Oc1c(ccc3cc(O)ccc13)C21OC(=O)c2ccc(C(=O)O)cc21 (centres unmarked) [Compound 9] = 583
CN(C)c1ccc2c(c1)Oc1c(ccc3cc(O)ccc13)C21OC(=O)c2cc(C(=O)O)ccc21 (centres unmarked) [Compound 8] = 587
CCN(CC)c1ccc2c(c1)Oc1c(ccc3cc(O)ccc13)C21OC(=O)c2ccccc21 (centres unmarked) [Compound 6] = 583
CN(C)c1ccc2c(c1)Oc1c(ccc3cc(O)ccc13)C21OC(=O)c2ccccc21 (centres unmarked) [Compound 5] = 585
O=C(O)c1ccc2c(c1)C1(OC2=O)c2cc(Cl)c(O)cc2Oc2c1ccc1cc(O)ccc21 (centres unmarked) [Compound 3] = 546
